Data origin: PubChem BioAssay (NCATS)

# SYSTEM_UNDER_TEST: D(1A) dopamine receptor (Homo sapiens)
# PROCEDURE_TEXT: HTS Assay for Allosteric Agonists of the Human D1 Dopamine Receptor: Primary Screen for Agonists (AID 488981)
# CONDITION_PARAMETERS: Inducible HEK293 T-REx D1 cells, calcium-flux fluorescence, 180 s kinetic; series mostly up to 41.8 µM
Inconclusive results are not listed. Active and inactive are the calls of the source. Calls come from the whole dose curve; as a rule, active = well fitted activation curve with a large enough effect; inconclusive = small, poorly fitted or top-dose-only effect; inactive = flat fitted curve, though single readings scatter.
Field 'call' accepts yes (active), no (inactive)

Worked cases, answers included:
> print(dat)
                                   compound                       system.under.test  class.assignment
1  O=C(O)/C=C/C(O)c1ccc(Cl)cc1 (configuration not stated)  D(1A) dopamine receptor (Homo sapiens)                no
2  Nc1nc(Nc2ccccc2)nc2c1ncn2[C@@H]1O[C@H](CO)[C@@H](O)[C@H]1O  D(1A) dopamine receptor (Homo sapiens)                no
3              CN(C)C(N)=NCCC[C@H](N)C(=O)O  D(1A) dopamine receptor (Homo sapiens)                no
4  N#C/C(=C\c1c[nH]c2ccccc12)C(=O)c1ccc(O)c(O)c1  D(1A) dopamine receptor (Homo sapiens)                no
5  CCCCCCCCCCCCCCCCCC(=O)OC(CC(=O)O)C[N+](C)(C)C (configuration not stated)  D(1A) dopamine receptor (Homo sapiens)               yes

Ask: What did the test return for Cc1cc(NC(=O)Nc2ccc3c(ccn3C)c2)sn1 ?
Result: no

Ask: What did the test return for CCCCCCCCCCCCCCCCCCNC(=O)OCC(COP(=O)([O-])OCC[n+]1ccsc1)OC (configuration not stated) ?
Result: no
